FYI, the data here is from ChEMBL document CHEMBL3044914.

Item-by-item account of inhibition
assay: Inhibition of soil urease assessed as urea-N level at 1% compound level measured after 27 hr; details: concentration not given here
metric: inhibition (%)

[
  {
    "molecule": "CC1(C)CC(=S)C2=C(C1)Oc1ccc3ccccc3c1C2c1ccccc1 (stereo not given)",
    "readout unit": "%",
    "readout value": 5
  },
  {
    "molecule": "COc1ccc(C2C3=C(CC(C)(C)CC3=S)Oc3ccc4ccccc4c32)cc1 (stereo not given)",
    "readout unit": "%",
    "readout value": -4
  },
  {
    "molecule": "COc1cc(C2C3=C(CC(C)(C)CC3=S)Oc3ccc4ccccc4c32)ccc1O (stereo not given)",
    "readout unit": "%",
    "readout value": 12
  },
  {
    "molecule": "CC1(C)CC(=S)C2=C(C1)Oc1ccc3ccccc3c1C2c1ccc(Cl)cc1 (stereo not given)",
    "readout unit": "%",
    "readout value": 18
  },
  {
    "molecule": "Cc1ccc(C2C3=C(CC(C)(C)CC3=S)Oc3ccc4ccccc4c32)cc1 (stereo not given)",
    "readout unit": "%",
    "readout value": 12
  }
]
